Origin of the recorded values: patent US20150353495A1

# experimental.system: JAK2 (Homo sapiens)
# Construct: 5 μl of catalytic domain recombinant Kinase enzyme+Tyr peptide substrate (Invitrogen, CA)
# Sequence (O60674 849-1124 limits assumed): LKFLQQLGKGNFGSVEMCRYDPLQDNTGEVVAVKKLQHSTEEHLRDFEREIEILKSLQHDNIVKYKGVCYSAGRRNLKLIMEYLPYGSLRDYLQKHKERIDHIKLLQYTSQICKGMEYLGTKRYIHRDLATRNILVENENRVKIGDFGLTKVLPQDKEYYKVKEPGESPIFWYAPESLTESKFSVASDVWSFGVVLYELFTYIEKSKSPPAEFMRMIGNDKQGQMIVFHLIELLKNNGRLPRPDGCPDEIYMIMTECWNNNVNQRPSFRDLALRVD
# experiment.description: Z'-LYTE kinase assay JAK2
pIC50: −log10 of the molar value.
Reported pIC50 values for a set of compounds

{"columns": ["smiles.data", "pIC50"],
 "data": [
  ["NC(=O)c1cnc(Nc2ccc(C3CCNCC3)cc2)cc1NCc1ccccc1F", "6.00 to 7.00"],
  ["NC(=O)c1cnc(Nc2cccc(OCCN3CCCC3)c2)cc1NCc1cccnc1", "6.00 to 7.00"],
  ["NC(=O)c1cnc(Nc2cccc(N3CCNCC3)c2)cc1NC1(c2ccccc2)CC1", "6.00 to 7.00"],
  ["CN(C)C(=O)c1ccc(Nc2cc(NCc3cccc4c3ccn4C)c(C(N)=O)cn2)cc1", "6.00 to 7.00"],
  ["CN(C)C(=O)c1ccc(Nc2cc(NCc3c(F)cccc3F)c(C(N)=O)cn2)cc1", "7.00 to 8.00"],
  ["COc1ccc(Nc2cc(NCc3cccc4ccsc34)c(C(N)=O)cn2)cc1", "6.00 to 7.00"],
  ["NC(=O)c1cnc(Nc2ccc(OCC(=O)N3CCOCC3)cc2)cc1NCc1ccccc1", "6.00 to 7.00"],
  ["CC(=O)N(C)c1ccc(Nc2cc(NC3(c4ccccc4)CC3)c(C(N)=O)cn2)cc1", "< 6.00"],
  ["CCC(=O)N1CCC(c2ccc(Nc3cc(NCc4ccc(F)c(F)c4)c(C(N)=O)cn3)cc2)CC1", "6.00 to 7.00"],
  ["CS(=O)(=O)N1CCC(c2ccc(Nc3cc(NCc4ccccc4F)c(C(N)=O)cn3)cc2)CC1", "< 6.00"],
  ["COc1ccc(Nc2cc(NCc3cccc(S(C)(=O)=O)c3)c(C(N)=O)cn2)cc1", "< 6.00"],
  ["CC(=O)N1CCN(c2ccc(Nc3cc(NC4CC4)c(C(N)=O)cn3)cc2)CC1", "6.00 to 7.00"],
  ["NC(=O)c1cnc(Nc2ccc(OC(F)(F)F)cc2)cc1NCc1cccc2[nH]ccc12", "< 6.00"],
  ["COc1ccc(Nc2cc(NCc3ccncn3)c(C(N)=O)cn2)cc1", "< 6.00"],
  ["CC(=O)N1CCN(c2ccc(Nc3cc(N[C@H](C)c4ccccc4)c(C(N)=O)cn3)cc2)CC1", "6.00 to 7.00"]
]}

###

Reported pIC50 values for a set of compounds
# experimental.system: TYK2 (Homo sapiens)
# Construct: 5 μl of catalytic domain recombinant Kinase enzyme+Tyr peptide substrate (Invitrogen, CA)
# Sequence (P29597 897-1176 limits assumed): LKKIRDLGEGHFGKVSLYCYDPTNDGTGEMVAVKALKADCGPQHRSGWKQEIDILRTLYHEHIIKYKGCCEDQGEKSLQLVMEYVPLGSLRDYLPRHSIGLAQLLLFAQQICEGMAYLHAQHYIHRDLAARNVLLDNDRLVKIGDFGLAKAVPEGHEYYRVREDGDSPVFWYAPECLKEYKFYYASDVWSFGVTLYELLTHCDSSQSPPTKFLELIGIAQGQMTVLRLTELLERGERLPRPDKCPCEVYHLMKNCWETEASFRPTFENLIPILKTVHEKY
# experiment.description: Z'-LYTE kinase assay TYK2
pIC50: −log10 of the molar value. Where a name gives a salt, the structure may show the parent alone.

{"columns": ["compound", "pIC50"],
 "data": [
  ["CCC(=O)N1CCC(c2ccc(Nc3cc(NCc4cncc(F)c4)c(C(N)=O)cn3)cc2)CC1", "6.00 to 7.00"],
  ["NC(=O)c1cnc(Nc2ccc(Cl)cc2)cc1NCc1ccccc1", "< 6.00"],
  ["CN(C)C(=O)c1ccc(Nc2cc(NCc3ccccc3)c(C(N)=O)cn2)cc1Cl", "6.00 to 7.00"],
  ["CC(=O)Nc1cccc(Nc2nc(NCc3ccccc3)c(C(N)=O)cc2F)c1", "< 6.00"],
  ["NC(=O)c1cc(F)c(Nc2cccc(-n3nccn3)c2)nc1NC1CCCC1", "< 6.00"],
  ["NC(=O)c1cnc(Nc2ccc(OCCN3CCOCC3)cc2)cc1NCc1ccccc1", "< 6.00"],
  ["CC(=O)N1CCC[C@H](CNc2cc(Nc3ccc(C(=O)N4CCCC4)cc3)ncc2C(N)=O)C1", "6.00 to 7.00"],
  ["CC(=O)N1CCN(c2ccc(Nc3cc(NCc4ccccc4)c(C(N)=O)cn3)cc2C)CC1", "6.00 to 7.00"],
  ["COc1cc(Nc2cc(NCc3cccc(F)c3)c(C(N)=O)cn2)ccc1N1CCCC1=O", "< 6.00"],
  ["CC(=O)N1CCN(c2ccc(Nc3cc(NCC(C)C)c(C(N)=O)cn3)cc2)CC1", "7.00 to 8.00"],
  ["COc1cc(Nc2cc(NCc3ccccc3)c(C(N)=O)cn2)ccc1C(=O)N(C)C", "6.00 to 7.00"],
  ["C[N+]1(C)CCC(c2ccc(Nc3cc(NCc4cccc(F)c4)c(C(N)=O)cn3)cc2)CC1 [Example 78, formate]", "6.00 to 7.00"],
  ["NC(=O)c1cnc(Nc2cccc(OCC(=O)N3CCOCC3)c2)cc1NCc1ccccc1", "6.00 to 7.00"],
  ["CCC(=O)N1CCN(c2ccc(Nc3cc(NCc4cccc(F)c4F)c(C(N)=O)cn3)cc2)CC1", "6.00 to 7.00"],
  ["CC(=O)N1CCN(c2ccc(Nc3cc(NCc4cccs4)c(C(N)=O)cn3)cc2)CC1", "7.00 to 8.00"],
  ["NC(=O)c1cnc(Nc2ccc(N3CCCCC3)cc2)cc1N[C@H](CO)c1ccccc1", "< 6.00"],
  ["CC(=O)N1CCN(c2ccc(Nc3cc(NCc4ccccc4F)c(C(N)=O)cn3)cc2)CC1", "6.00 to 7.00"],
  ["Cc1cc(Nc2cc(NCc3ccccc3)c(C(N)=O)cn2)ccc1C(=O)N1CCCC1", "6.00 to 7.00"],
  ["CC(=O)Nc1cccc(Nc2nc(N)c(C(N)=O)cc2F)c1", "< 6.00"],
  ["COc1ccc(Nc2cc(NCc3ccccc3)c(C(N)=O)cn2)cc1", "< 6.00"],
  ["NC(=O)c1cnc(Nc2ccc(C(=O)N3CCC3)cc2)cc1NCc1ccccc1", "6.00 to 7.00"],
  ["NC(=O)c1cnc(Nc2cccc(N3CCNCC3)c2)cc1NC1(c2ccccc2)CC1", "< 6.00"],
  ["NC(=O)c1cnc(Nc2cccc(OCCN3CCCC3)c2)cc1N[C@H](CO)c1ccccc1", "< 6.00"],
  ["CCC(=O)N1CCC(c2ccc(Nc3cc(NCc4cccc5[nH]ccc45)c(C(N)=O)cn3)cc2)CC1", "7.00 to 8.00"],
  ["CC(=O)Nc1cccc(Nc2nc(N[C@H](C)c3ccccc3)c(C(N)=O)cc2F)c1", "< 6.00"],
  ["CN(C)C(=O)COc1ccc(Nc2cc(NC3(c4ccccc4)CC3)c(C(N)=O)cn2)cc1", "< 6.00"],
  ["NC(=O)c1cnc(Nc2ccc(C3CCN(C4CCCC4)CC3)cc2)cc1NCc1ccccc1F", "6.00 to 7.00"],
  ["CC(=O)N1CCN(c2ccc(Nc3cc(N[C@H](C)c4ccccc4)c(C(N)=O)cn3)cc2)CC1", "< 6.00"],
  ["N#CCC(=O)N1CCC(c2ccc(Nc3cc(NCc4ccccc4F)c(C(N)=O)cn3)cc2)CC1", "6.00 to 7.00"],
  ["CC(C)(C)OC(=O)N1CCC(c2ccc(Nc3cc(NCc4cccc(F)c4)c(C(N)=O)cn3)cc2)CC1", "< 6.00"],
  ["NC(=O)c1cc(F)c(Nc2cccc(-n3nccn3)c2)nc1NCc1ccccc1", "< 6.00"]
]}

###

# experimental.system: JAK1 (Homo sapiens)
# Construct: 5 μl of catalytic domain recombinant Kinase enzyme+Tyr peptide substrate (Invitrogen, CA); purchased Invitrogen
# Sequence (P23458 875-1153 limits assumed): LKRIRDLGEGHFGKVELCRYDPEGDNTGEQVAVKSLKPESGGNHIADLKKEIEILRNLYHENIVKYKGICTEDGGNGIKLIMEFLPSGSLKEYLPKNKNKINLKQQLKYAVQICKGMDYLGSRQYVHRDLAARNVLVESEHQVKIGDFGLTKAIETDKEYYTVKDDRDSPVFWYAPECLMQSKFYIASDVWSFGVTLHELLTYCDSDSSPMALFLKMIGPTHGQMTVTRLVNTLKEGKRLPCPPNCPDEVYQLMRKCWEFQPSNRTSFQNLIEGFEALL
# experiment.description: Z'-LYTE kinase assay JAK1
# Format: biochemical

{"columns": ["compound", "experimental.system", "IC50"],
 "data": [
  ["CS(=O)(=O)Cc1ccc(Nc2cc(NCc3cccc4[nH]ccc34)c(C(N)=O)cn2)cc1 [Example 348]", "JAK1 (Homo sapiens)", "1 to 10 nM"],
  ["CC(C)CNc1cc(Nc2ccc(C3CCOCC3)cc2)ncc1C(N)=O [Example 156]", "JAK1 (Homo sapiens)", "100 to 1000 nM"],
  ["CC(=O)N1CCC(CNc2cc(Nc3ccc(C(=O)N4CCOCC4)cc3)ncc2C(N)=O)CC1 [Example 44]", "JAK1 (Homo sapiens)", "> 1000 nM"],
  ["NC(=O)c1cc(F)c(Nc2ccc(OCCN3CCCC3)cc2)nc1NCc1ccccc1 [Example 26]", "JAK1 (Homo sapiens)", "> 1000 nM"],
  ["CS(=O)(=O)c1ccc(Nc2cc(NCc3cccc4[nH]ccc34)c(C(N)=O)cn2)cc1 [Example 320]", "JAK1 (Homo sapiens)", "10 to 100 nM"],
  ["CC(C)(C)OC(=O)N1CCC(c2ccc(Nc3cc(NCc4cccc(F)c4)c(C(N)=O)cn3)cc2)CC1 [Example 77]", "JAK1 (Homo sapiens)", "> 1000 nM"]
]}
